Entries and their melting point

Use the examples below as a reference point.
[
  {
    "SMILES ENTRY": "O=C(O)CCCNC(=O)c1ccccc1NC(=O)c1ccc(Cl)cc1",
    "melting point": "182 to 184 °C"
  },
  {
    "SMILES ENTRY": "O=C(O)CCCNC(=O)c1ccccc1NC(=O)c1cccc(Cl)c1",
    "melting point": "165 to 166 °C"
  },
  {
    "SMILES ENTRY": "O=C(O)CCCNC(=O)c1ccc(NC(=O)c2ccccc2O)cc1",
    "melting point": "211 to 213 °C"
  },
  {
    "SMILES ENTRY": "O=C(O)CCCNC(=O)c1ccccc1NC(=O)c1ccccc1Cl",
    "melting point": "110 to 112 °C"
  }
]

# next molecule below
**Query** # query: melting point of entry O=C(O)CCCNC(=O)c1ccccc1NC(=O)c1ccc([N+](=O)[O-])cc1
**Result** 206 to 208 °C

====

experiment: Intracolonic absorption of bemiparin in the rat, with or without adjuvant (plasma anti-Xa activity); format: in vivo; conditions: adjuvant given with bemiparin, result in words
MEASUREMENT LABEL: effect on colonic absorption of bemiparin measured by plasma anti-Xa activity

Use the examples below as a reference point.
[
  {
    "SMILES ENTRY": "O=C(O)CCCNC(=O)c1cccc(NC(=O)c2ccccc2O)c1",
    "RECORDED VALUE": "no effect"
  },
  {
    "SMILES ENTRY": "O=C(O)CCCNC(=O)c1ccccc1NC(=O)c1ccc(Cl)cc1",
    "RECORDED VALUE": "strong increase"
  },
  {
    "SMILES ENTRY": "O=C(O)CCCNC(=O)c1ccc(NC(=O)c2ccccc2O)cc1",
    "RECORDED VALUE": "no effect"
  },
  {
    "SMILES ENTRY": "O=C(O)CCCNC(=O)c1ccccc1NC(=O)c1ccc([N+](=O)[O-])cc1O",
    "RECORDED VALUE": "strong increase"
  },
  {
    "SMILES ENTRY": "O=C(O)CCCNC(=O)c1ccccc1NC(=O)c1ccccc1O",
    "RECORDED VALUE": "strong increase"
  }
]

# next compound below
**Query** # query: effect on colonic absorption of bemiparin measured by plasma anti-Xa activity of entry O=C(O)CCCCCNC(=O)c1ccc(NC(=O)c2ccccc2O)cc1
**Result** no effect

====

MEASUREMENT LABEL: melting point

[
  {
    "SMILES ENTRY": "COc1ccc(O)c(C(=O)Nc2ccccc2C(=O)NCCCC(=O)O)c1",
    "melting point": "191 to 193 °C"
  }
]

**Query** # query: melting point of entry COc1ccc(C(=O)Nc2ccccc2C(=O)NCCCC(=O)O)cc1
**Result** 172 to 174 °C

**Query** # query: melting point of entry O=C(O)CCCNC(=O)c1ccccc1NC(=O)c1cc(Cl)ccc1O
**Result** 222 to 223 °C

**Query** # query: melting point of entry O=C(O)CCCCCCCNC(=O)c1ccccc1NC(=O)c1ccccc1O
**Result** 124 to 125 °C

**Query** # query: melting point of entry O=C(O)CCNC(=O)c1ccccc1NC(=O)c1ccccc1O
**Result** 200 to 202 °C

**Query** # query: melting point of entry O=C(O)CCCCNC(=O)c1ccccc1NC(=O)c1ccccc1O
**Result** 168 to 170 °C

**Query** # query: melting point of entry O=C(O)CCCCCNC(=O)c1ccc(NC(=O)c2ccccc2O)cc1
**Result** 201 to 203 °C

**Query** # query: melting point of entry O=C(O)CCCNC(=O)c1ccccc1NC(=O)c1cc([N+](=O)[O-])ccc1O
**Result** 239 to 241 °C

**Query** # query: melting point of entry O=C(O)CCCNC(=O)c1ccccc1NC(=O)c1ccccc1Br
**Result** 117 to 118 °C
